All values here come from paper PMC11931385.

measured.target: T1, Rb^P E554K (human, UniProt P06400 380-788, E554K)
T1 construct: also called variant 28
T1 sequence (looked up): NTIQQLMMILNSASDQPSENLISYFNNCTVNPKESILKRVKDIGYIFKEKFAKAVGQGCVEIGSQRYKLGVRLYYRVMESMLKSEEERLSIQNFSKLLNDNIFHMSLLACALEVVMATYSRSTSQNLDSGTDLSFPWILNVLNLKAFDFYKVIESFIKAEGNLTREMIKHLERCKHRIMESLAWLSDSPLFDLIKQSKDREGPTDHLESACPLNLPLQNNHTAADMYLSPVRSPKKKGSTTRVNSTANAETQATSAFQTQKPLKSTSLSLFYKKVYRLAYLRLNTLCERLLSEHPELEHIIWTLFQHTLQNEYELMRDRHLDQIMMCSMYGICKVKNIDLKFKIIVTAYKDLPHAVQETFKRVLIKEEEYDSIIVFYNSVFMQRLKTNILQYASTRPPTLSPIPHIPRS
assay.explanation: fluorescence polarisation; 37 °C, after the 25 °C reading ramped over 7 min to 37 °C and 2 min incubation; unlabeled Rb^P against 1.5 nM TMR-E2F1^TD or 7.5 nM TMR-E7^LxCxE; 25 mM Tris pH 8.0, 200 mM NaCl, 1 mM DTT, 0.1% Tween-20; apparent Kd
stated.conditions: both partners purified
No end group written: not given here. TMR = tetramethyl rhodamine dye
Kindly state pKd for each of the entries shown.
Scale: negative log10 of molar concentration, which is what pKd denotes.

**Q:** # pKd lookup, item {TMR}-GEGIRDLFDCDFGDLTPLD (also called E2F^TD; source: synthetic peptide, bought: GenScript) [TMR-E2F1^TD, peptide of the E2F1 transactivation domain]
**A:** 5.49

**Q:** # pKd lookup, item DLYCYEQLN (also: TMR label, position not given here, source: synthetic peptide, bought: GenScript) [TMR-E7^LxCxE, LxCxE peptide of the E7 oncoprotein from HPV]
**A:** 7.32
